- system-name: GST-Rok (full length) (Bacillus subtilis subsp. subtilis str. …, UniProt O34857 1-191)
- Sequence: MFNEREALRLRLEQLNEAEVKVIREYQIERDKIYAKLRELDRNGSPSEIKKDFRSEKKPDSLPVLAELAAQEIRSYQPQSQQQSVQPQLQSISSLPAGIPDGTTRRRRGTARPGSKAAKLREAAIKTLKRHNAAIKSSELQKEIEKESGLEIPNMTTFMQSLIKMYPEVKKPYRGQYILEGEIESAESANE
- method-notes: protein binding microarray; high values mean tight binding
- conditions-used: protein: recombinant; tags: GST (pTH5325, pDEST15-Magic modified); dsDNA, one strand shown
The full ranking holds about 33,000 sequences; the median of “e-score” is about -0.037, and the highest 2% start at about 0.34. Shown is part of a subset that was picked to be rich in the highest values.
Please respond with yes when measured binding signal is strictly beneath 0.3 E-score, and with no in all other cases.

Ask | For CAATTGTC , is the recorded binding signal below the cut-off of 0.3 E-score?
Reply | yes

Ask | For ATATTGTA , is the recorded binding signal below the cut-off of 0.3 E-score?
Reply | no

Ask | For ACCATGTA , is the recorded binding signal below the cut-off of 0.3 E-score?
Reply | no

Ask | For CTATTGTC , is the recorded binding signal below the cut-off of 0.3 E-score?
Reply | yes

Ask | For ATATAGTC , is the recorded binding signal below the cut-off of 0.3 E-score?
Reply | yes

Ask | For ATATAGTG , is the recorded binding signal below the cut-off of 0.3 E-score?
Reply | yes

Ask | For AACATACG , is the recorded binding signal below the cut-off of 0.3 E-score?
Reply | yes

Ask | For TACTAAAA , is the recorded binding signal below the cut-off of 0.3 E-score?
Reply | no

Ask | For GTATAGTA , is the recorded binding signal below the cut-off of 0.3 E-score?
Reply | no

Ask | For TACTTACA , is the recorded binding signal below the cut-off of 0.3 E-score?
Reply | no

Ask | For CTATTGTA , is the recorded binding signal below the cut-off of 0.3 E-score?
Reply | no

Ask | For CACATGTA , is the recorded binding signal below the cut-off of 0.3 E-score?
Reply | yes

---

- system-name: GST-Rok (full length) (Bacillus subtilis subsp. subtilis str. …, UniProt O34857 1-191)
- Sequence: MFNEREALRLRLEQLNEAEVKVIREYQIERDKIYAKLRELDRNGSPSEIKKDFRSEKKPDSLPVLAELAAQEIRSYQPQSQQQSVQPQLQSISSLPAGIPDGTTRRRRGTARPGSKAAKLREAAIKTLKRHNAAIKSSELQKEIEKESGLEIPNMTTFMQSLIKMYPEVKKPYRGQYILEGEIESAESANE
- method-notes: protein binding microarray; Rok is a gene silencer of Bacillus subtilis; high values mean tight binding
- conditions-used: protein: recombinant; tags: GST (pTH5325, pDEST15-Magic modified); dsDNA, one strand shown
Whole data set: some 33,000 sequences, median “e-score” near -0.037, cut for the highest 2% near 0.34. This excerpt belongs to a sample that is enriched for the highest values.
Could you please report measured binding signal for the items listed next?
Just the number please, in E-score, no unit attached.

Ask | Suppose we examine the sequence AGTGATAA ; what binding signal value has been reported?
Reply | 0.145

Ask | Suppose we examine the sequence ATGGGCTA ; what binding signal value has been reported?
Reply | 0.0395

Ask | Suppose we examine the sequence TAGCTAAA ; what binding signal value has been reported?
Reply | 0.214

Ask | Suppose we examine the sequence AACTACGT ; what binding signal value has been reported?
Reply | 0.306

Ask | Suppose we examine the sequence ATAGATTA ; what binding signal value has been reported?
Reply | 0.301

Ask | Suppose we examine the sequence AATGAATT ; what binding signal value has been reported?
Reply | 0.29

Ask | Suppose we examine the sequence ATTTTGCC ; what binding signal value has been reported?
Reply | 0.0261

Ask | Suppose we examine the sequence AACTACGA ; what binding signal value has been reported?
Reply | 0.292

Ask | Suppose we examine the sequence ACAGTAAC ; what binding signal value has been reported?
Reply | 0.293

Ask | Suppose we examine the sequence CTAATCGC ; what binding signal value has been reported?
Reply | 0.18

Ask | Suppose we examine the sequence TAGTATAA ; what binding signal value has been reported?
Reply | 0.404

Ask | Suppose we examine the sequence CCTAGCGA ; what binding signal value has been reported?
Reply | -0.111

Ask | Suppose we examine the sequence ATAGATTG ; what binding signal value has been reported?
Reply | 0.316

Ask | Suppose we examine the sequence AAGGATCA ; what binding signal value has been reported?
Reply | -0.129

Ask | Suppose we examine the sequence AGGTATAA ; what binding signal value has been reported?
Reply | 0.322

Ask | Suppose we examine the sequence TAGCCCAA ; what binding signal value has been reported?
Reply | -0.0264
